Entry source: ChEMBL document CHEMBL1139462

Overview of recorded bioavailability for various molecules
Experiment: Bioavailability in mouse at 20 mg/kg, po
Format: ADME, organism-based
Settings: in vivo
Return type: number; implicit unit %.

COc1ccc2c(c1N)C(=O)O[C@@H]2[C@H]1c2c(cc3c(c2OC)OCO3)CCN1C: 11.4

Report bioavailability for COc1ccc2c(c1O)C(=O)O[C@@H]2[C@H]1c2c(cc3c(c2OC)OCO3)CCN1C please. 22

I am curious: what bioavailability value has been reported for COc1ccc2c(c1OC)C(=O)O[C@@H]2[C@H]1c2c(cc3c(c2OC)OCO3)CCN1C ? 14.1

====

Quick reference for half-life among some compounds
Experiment: Half life in mouse at 2 mg/kg, iv
Assay type: ADME, organism-based
Parameters: dose 2 mg/kg, route intravenous
Conditions: in vivo
Field: numeric (h). Do not append units.

COc1ccc2c(c1N)C(=O)O[C@@H]2[C@H]1c2c(cc3c(c2OC)OCO3)CCN1C: 1.04

State the recorded half-life for this entry: COc1ccc2c(c1O)C(=O)O[C@@H]2[C@H]1c2c(cc3c(c2OC)OCO3)CCN1C 2.79

====

Molecular target: Tubulin
Experiment: Inhibition of tubulin polymerization
quantity-measured: pEC50
Please report pEC50 as the negative decimal logarithm of the molar concentration, giving only the number.

COc1ccc2c(c1N)C(=O)O[C@@H]2[C@H]1c2c(cc3c(c2OC)OCO3)CCN1C: 6.52

Continue with the compound presented below.
# query: pEC50 of entry COc1ccc2c(c1O)C(=O)O[C@@H]2[C@H]1c2c(cc3c(c2OC)OCO3)CCN1C 6.15

====

Each entry below carries its recorded AUC.
Assay: AUC in mouse at 20 mg/kg, po
Assay type: ADME, organism-based
Set-up: dose 20 mg/kg, route oral
Settings: plasma
Value expressed in ng·h/mL; do not type the unit.

COc1ccc2c(c1N)C(=O)O[C@@H]2[C@H]1c2c(cc3c(c2OC)OCO3)CCN1C: 391

Item COc1ccc2c(c1O)C(=O)O[C@@H]2[C@H]1c2c(cc3c(c2OC)OCO3)CCN1C has what recorded AUC? 740

Fill blank: measured AUC of the compound COc1ccc2c(c1OC)C(=O)O[C@@H]2[C@H]1c2c(cc3c(c2OC)OCO3)CCN1C is ____. 524
